// reported clearance for each item listed
# method_description: Clearance in rat at 3 umol/kg, iv
# Format: ADME, organism-based
# condition_info: in vivo
Your answer is read as mL/min/kg, so omit the unit and give the number.

These recorded examples may help you get a feel for the data.
COc1ncc(-c2cccc3c2C[C@H](NC(=O)c2ccc(OCCC(F)(F)F)nc2)CO3)cn1: 14
COc1ncc(-c2ccccc2C(F)(F)CNC(=O)c2ccc(COCC(F)(F)F)nc2)cn1: 23
COc1cnc(-c2ccccc2C(F)(F)CNC(=O)c2ccc(COCC(F)(F)F)nc2)cn1: 11

Query :: So what's the measured clearance for this one? COc1ncc(-c2cccc(C)c2CCNC(=O)c2ccc(OCCC(F)(F)F)nc2)cn1
Result :: 50

Query :: Next entry: Cc1cnc(-c2c(F)ccc(F)c2CCNC(=O)c2ccc(COCC(F)(F)F)nc2)cn1
Result :: 24.6

Query :: Thanks! And COc1cnc(-c2c(F)ccc(F)c2CCNC(=O)c2ccc(COCC(F)(F)F)nc2)cn1 ?
Result :: 13

Query :: Repeat for the following compound: COc1cnc(-c2c(C)ccc(F)c2CCNC(=O)c2ccc(COCC(F)(F)F)nc2)cn1
Result :: 19

----------
# System: Liver microsomes
# method_description: Intrinsic clearance in rat liver microsomes
# Assay type: ADME, Microsome
Assign labels as follows, please: criterion met for CLH below 20 µL/min/µg; criterion not met for CLH equal to or exceeding 20 µL/min/µg.

Query :: Answer whether the compound COc1ncc(-c2cccc(Cl)c2CCNC(=O)c2ccc(OCCC(F)(F)F)nc2)cn1 has CLH strictly less than 20 µL/min/µg
Result :: criterion met

Query :: Proceed to COc1cnc(-c2c(C)ccc(F)c2CCNC(=O)c2ccc(COCC(F)(F)F)nc2)cn1
Result :: criterion not met

Query :: # repeat for COc1cnc(-c2cccc(F)c2C(F)(F)CNC(=O)c2ccc(COCC(F)(F)F)nc2)cn1
Result :: criterion not met

Query :: Same again, this time with O=C(NCCc1ccccc1-c1ccc(CO)nc1)c1ccc(OCCC(F)(F)F)nc1
Result :: criterion not met

Query :: Next compound: COc1ncc(-c2ccc(C)nc2CCNC(=O)c2ccc(OCCC(F)(F)F)nc2)cn1
Result :: criterion met

Query :: Now the compound Cc1cnc(-c2c(F)ccc(F)c2CCNC(=O)c2ccc(COCC(F)(F)F)nc2)cn1
Result :: criterion met

Query :: Now the compound COc1cnc(-c2ccccc2CCNC(=O)c2ccc(OCCC(F)(F)F)nc2)cn1
Result :: criterion not met

Query :: Can you check COc1ncc(-c2cccnc2CCNC(=O)c2ccc(OCCC(F)(F)F)nc2)cn1 next?
Result :: criterion met

Query :: # repeat for COc1ncc(-c2cccc(F)c2CCNC(=O)c2ccc(OCCC(F)(F)F)nc2)cn1
Result :: criterion met

Query :: Item: Cc1ncc(-c2ccccc2CCNC(=O)c2ccc(CNCCC(F)(F)F)nc2)cn1
Result :: criterion met

Query :: Again, but for COc1ncc(-c2ccccc2CCNC(=O)c2ccc(OCCC(F)(F)F)nc2)cn1
Result :: criterion not met

Query :: // query: COc1ncc(-c2cccc(C#N)c2CCNC(=O)c2ccc(OCCC(F)(F)F)nc2)cn1
Result :: criterion not met

Query :: One more compound: COc1cnc(-c2ccccc2C(F)(F)CNC(=O)c2ccc(COCC(F)(F)F)nc2)cn1
Result :: criterion met

Query :: Next compound up: Cc1ncc(-c2ccccc2CCNC(=O)c2ccc(OCCC(F)(F)F)nc2)cn1
Result :: criterion not met

----------
# Tested on: Liver microsomes
# method_description: Intrinsic clearance in human liver microsomes
# Type: ADME, Microsome
Measured CLH values are reported for all entries that follow.
Provide only the numeric value, understood in µL/min/µg.

Consider the following illustrative entries.
COc1cnc(-c2ccc(Cl)cc2CCNC(=O)c2ccc(COCC(F)(F)F)nc2)cn1: 72
O=C(NCCc1ccccc1-c1cccnc1)c1ccc(OCCC(F)(F)F)nc1: 160
Cc1ncc(-c2ccccc2CCNC(=O)c2ccc(CNCCC(F)(F)F)nc2)cn1: 15

Attention now shifts to the item below.
Query :: Item under review: Cc1cnc(-c2c(F)ccc(F)c2CCNC(=O)c2ccc(COCC(F)(F)F)nc2)cn1 . Reported CLH?
Result :: 21

----------
# System: Liver microsomes
# method_description: Intrinsic clearance in human liver microsomes
# Format: ADME, Microsome
Recorded measurements of CLH, one per entry
Numbers only here, please. The scale is µL/min/µg.

COc1ncc(-c2ccccc2CCNC(=O)c2ccc(OCCC(F)(F)F)nc2)cn1: 17

Query :: If you can, please state the reported CLH value of COc1ncc(-c2c(C)ccc(F)c2CCNC(=O)c2ccc(OCC(F)(F)F)nc2)cn1 .
Result :: 74

Query :: Same question for COc1ccc(CCNC(=O)c2ccc(OCCC(F)(F)F)nc2)c(-c2cnc(OC)nc2)c1 please.
Result :: 40

Query :: Please do the same for O=C(NCCc1ccccc1-c1cnc(OC(F)F)cn1)c1ccc(OCCC(F)(F)F)nc1 as well.
Result :: 210

Query :: Queued: COc1cnc(-c2ccccc2CCNC(=O)c2ccc(OCCC(F)(F)F)nc2)cn1
Result :: 124

Query :: And then COc1ncc(-c2cccc(Cl)c2CCNC(=O)c2ccc(OCCC(F)(F)F)nc2)cn1 , what is it?
Result :: 17

Query :: // next record COc1ncc(-c2c(C)ccc(F)c2CCNC(=O)c2ccc(OCCC(F)(F)F)nc2)cn1
Result :: 100

Query :: # repeat for COc1cnc(-c2c(C)ccc(F)c2CCNC(=O)c2ccc(COCC(F)(F)F)nc2)cn1
Result :: 61

----------
# method_description: Half life in rat at 3 umol/kg, iv
# Assay type: ADME, organism-based
# condition_info: in vivo
Mark true (1) only when half-life stays strictly below 1 h. Values equal to the cut-off are false (0).

Some solved entries appear below for comparison.
COc1cnc(-c2ccccc2C(F)(F)CNC(=O)c2ccc(COCC(F)(F)F)nc2)cn1: false (0)
COc1cnc(-c2c(F)ccc(F)c2CCNC(=O)c2ccc(COCC(F)(F)F)nc2)cn1: true (1)
COc1cnc(-c2c(C)ccc(F)c2CCNC(=O)c2ccc(COCC(F)(F)F)nc2)cn1: true (1)
Cc1cnc(-c2c(F)ccc(F)c2CCNC(=O)c2ccc(COCC(F)(F)F)nc2)cn1: false (0)
COc1ncc(-c2ccccc2C(F)(F)CNC(=O)c2ccc(COCC(F)(F)F)nc2)cn1: false (0)

Lab note: next compound to report on.
Query :: Dear reviewer, please state whether COc1ncc(-c2cccc3c2C[C@H](NC(=O)c2ccc(OCCC(F)(F)F)nc2)CO3)cn1 has half-life strictly beneath 1 h.
Result :: false (0)

----------
# Tested on: Liver microsomes
# method_description: Intrinsic clearance in human liver microsomes
# Type: ADME, Microsome
Parameter: CLH. Scope: all listed entries.
Express the result in µL/min/µg but write the number alone.

Query :: Please provide the recorded CLH for COc1cnc(-c2c(F)ccc(F)c2CCNC(=O)c2ccc(COCC(F)(F)F)nc2)cn1 , tested on Liver microsomes.
Result :: 44

----------
# method_description: Oral bioavailability in rat at 10 umol/kg
# Assay type: ADME, organism-based
# condition_info: in vivo
Below, each entry is listed with its recorded bioavailability.
Give just the number in %; leave the unit off.

Solved cases below.
COc1cnc(-c2c(C)ccc(F)c2CCNC(=O)c2ccc(COCC(F)(F)F)nc2)cn1: 4
COc1cnc(-c2ccccc2C(F)(F)CNC(=O)c2ccc(COCC(F)(F)F)nc2)cn1: 27
COc1ncc(-c2cccc3c2C[C@H](NC(=O)c2ccc(OCCC(F)(F)F)nc2)CO3)cn1: 26
COc1ncc(-c2ccccc2C(F)(F)CNC(=O)c2ccc(COCC(F)(F)F)nc2)cn1: 34
Cc1cnc(-c2c(F)ccc(F)c2CCNC(=O)c2ccc(COCC(F)(F)F)nc2)cn1: 7
COc1cnc(-c2c(F)ccc(F)c2CCNC(=O)c2ccc(COCC(F)(F)F)nc2)cn1: 5

Then there is this compound:
Query :: Consider the compound COc1ncc(-c2cccc(C)c2CCNC(=O)c2ccc(OCCC(F)(F)F)nc2)cn1 and give its measured bioavailability.
Result :: 0.6

----------
# method_description: Half life in rat at 10 umol/kg, po
# Assay type: ADME, organism-based
# condition_info: in vivo
Collected half-life values appear next to each entry.
Give the quantity in h, number only.

COc1cnc(-c2c(C)ccc(F)c2CCNC(=O)c2ccc(COCC(F)(F)F)nc2)cn1: 3.6
COc1cnc(-c2ccccc2C(F)(F)CNC(=O)c2ccc(COCC(F)(F)F)nc2)cn1: 2.8
Cc1cnc(-c2c(F)ccc(F)c2CCNC(=O)c2ccc(COCC(F)(F)F)nc2)cn1: 2.3
COc1ncc(-c2cccc(C)c2CCNC(=O)c2ccc(OCCC(F)(F)F)nc2)cn1: 2.4
COc1ncc(-c2cccc3c2C[C@H](NC(=O)c2ccc(OCCC(F)(F)F)nc2)CO3)cn1: 7.6

Query :: So what does the record say about half-life for COc1cnc(-c2c(F)ccc(F)c2CCNC(=O)c2ccc(COCC(F)(F)F)nc2)cn1 ?
Result :: 3

Query :: Same for COc1ncc(-c2ccccc2C(F)(F)CNC(=O)c2ccc(COCC(F)(F)F)nc2)cn1
Result :: 2.4
